- Tested on: PPARg:RXRa 30nM:10nM, anti-RXR (NR concentration 30 nM, RXRa partner concentration 10 nM)
- protocol_details: PBM binding z-score (relative to random genomic background probes); higher = stronger binding; sequences stand for … in GC…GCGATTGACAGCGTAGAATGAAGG
Assign a class from recorded PBM binding z-score; defined classes: 1 (below 0.6), 2 (0.6 to below 2), 3 (2 or more)

// known answers, use as guide
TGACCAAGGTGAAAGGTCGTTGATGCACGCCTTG
3
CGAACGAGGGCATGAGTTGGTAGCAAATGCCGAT
1
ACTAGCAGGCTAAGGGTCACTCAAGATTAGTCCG
3
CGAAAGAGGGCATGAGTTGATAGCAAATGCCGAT
1
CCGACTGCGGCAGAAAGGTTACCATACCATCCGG
2

Band for the recorded PBM binding z-score of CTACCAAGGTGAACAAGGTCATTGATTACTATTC ? 1

Band for the recorded PBM binding z-score of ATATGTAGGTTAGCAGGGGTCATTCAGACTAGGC ? 3

Band for the recorded PBM binding z-score of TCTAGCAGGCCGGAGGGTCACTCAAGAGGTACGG ? 2

Band for the recorded PBM binding z-score of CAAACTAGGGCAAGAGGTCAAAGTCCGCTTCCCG ? 3

Band for the recorded PBM binding z-score of CCTATTAGTTGACCATAAGGGCAACCGTAGCTCG ? 1

Band for the recorded PBM binding z-score of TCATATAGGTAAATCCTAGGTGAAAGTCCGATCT ? 3

Band for the recorded PBM binding z-score of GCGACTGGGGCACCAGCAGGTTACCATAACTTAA ? 1

====

- Tested on: PPARg:RXRa 90nM:30nM, anti-RXR (NR concentration 90 nM, RXRa partner concentration 30 nM)
- protocol_details: PBM binding z-score (relative to random genomic background probes); higher = stronger binding; sequences stand for … in GC…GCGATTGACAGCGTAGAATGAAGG
Kindly state PBM binding z-score for each of the entries shown.
Answers are plain numbers.

Solved entries:
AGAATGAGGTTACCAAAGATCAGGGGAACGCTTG
2
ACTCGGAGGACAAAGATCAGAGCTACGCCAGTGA
1.43
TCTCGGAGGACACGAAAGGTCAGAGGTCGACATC
3.74
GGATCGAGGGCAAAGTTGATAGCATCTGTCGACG
8.27
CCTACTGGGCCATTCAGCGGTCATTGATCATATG
0.242

Batch of 5 sequences: report PBM binding z-score for each.
1. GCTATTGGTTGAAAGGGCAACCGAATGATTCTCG
2. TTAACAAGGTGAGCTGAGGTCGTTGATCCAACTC
3. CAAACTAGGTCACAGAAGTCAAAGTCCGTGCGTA
4. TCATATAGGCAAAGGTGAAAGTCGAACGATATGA
5. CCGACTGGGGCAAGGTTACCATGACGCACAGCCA

4.37
0.24
6.93
4.56
2.47

Batch of 7 sequences: report PBM binding z-score for each.
1. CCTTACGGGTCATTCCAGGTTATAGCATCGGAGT
2. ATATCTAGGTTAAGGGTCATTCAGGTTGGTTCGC
3. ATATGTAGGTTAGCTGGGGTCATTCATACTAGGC
4. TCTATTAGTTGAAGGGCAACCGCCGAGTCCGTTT
5. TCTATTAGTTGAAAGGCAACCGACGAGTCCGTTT
6. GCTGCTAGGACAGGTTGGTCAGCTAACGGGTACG
7. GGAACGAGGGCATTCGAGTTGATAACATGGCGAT

1: 2.4; 2: 12.4; 3: 4.83; 4: 2.91; 5: 3.42; 6: -0.722; 7: 0.231

====

Kindly state PBM binding z-score for each of the entries shown.
- Test system: PXR:RXRa (NR concentration 270 nM, RXRa partner concentration 90 nM)
- protocol_details: PBM binding z-score (relative to random genomic background probes); higher = stronger binding; sequences stand for … in GC…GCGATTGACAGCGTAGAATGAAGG
Numbers only.

Solved entries:
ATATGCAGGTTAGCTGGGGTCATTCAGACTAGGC
6.31
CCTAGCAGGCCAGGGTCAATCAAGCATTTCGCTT
3.43
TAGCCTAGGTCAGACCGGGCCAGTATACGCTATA
0.913
TCTTATAGGTAAACAGGTGAAAGTCCGTAAGTTA
0.753
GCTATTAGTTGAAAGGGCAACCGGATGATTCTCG
0.775

# ---- query sequence ----
Look up PBM binding z-score: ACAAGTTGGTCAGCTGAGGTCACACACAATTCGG 5.44

====

- Tested on: LXRa homodimer (NR concentration 270 nM)
- protocol_details: PBM binding z-score (relative to random genomic background probes); higher = stronger binding; sequences stand for … in GC…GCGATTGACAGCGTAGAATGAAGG
Kindly state PBM binding z-score for each of the entries shown.
Give bare numbers.

Solved entries:
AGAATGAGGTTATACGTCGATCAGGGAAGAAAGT
-0.164
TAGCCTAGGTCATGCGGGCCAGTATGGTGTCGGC
-0.0396
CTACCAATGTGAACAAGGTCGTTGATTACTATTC
0.608
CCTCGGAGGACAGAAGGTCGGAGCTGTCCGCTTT
-0.611
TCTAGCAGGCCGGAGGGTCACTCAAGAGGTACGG
-0.517
CCGACTGGGGCATAAGGTGACCATAAGCCAGCCC
-0.561
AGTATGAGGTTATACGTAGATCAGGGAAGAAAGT
0.26
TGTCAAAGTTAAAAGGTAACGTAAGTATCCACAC
-0.245
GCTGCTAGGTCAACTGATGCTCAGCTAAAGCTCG
-0.106
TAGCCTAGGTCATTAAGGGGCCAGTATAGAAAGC
0.285

Batch of 7 sequences: report PBM binding z-score for each.
1. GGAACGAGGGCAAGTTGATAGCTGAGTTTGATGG
2. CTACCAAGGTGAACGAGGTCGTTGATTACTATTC
3. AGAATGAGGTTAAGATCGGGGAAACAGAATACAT
4. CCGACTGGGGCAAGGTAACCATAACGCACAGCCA
5. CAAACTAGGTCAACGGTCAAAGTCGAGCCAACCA
6. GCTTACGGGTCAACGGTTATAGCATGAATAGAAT
7. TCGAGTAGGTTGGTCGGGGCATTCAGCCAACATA

1. -0.459
2. 0.142
3. -0.244
4. -0.437
5. 2.25
6. -0.033
7. -0.443

Batch of 3 sequences: report PBM binding z-score for each.
1. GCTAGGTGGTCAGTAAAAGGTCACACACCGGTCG
2. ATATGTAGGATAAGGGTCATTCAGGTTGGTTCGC
3. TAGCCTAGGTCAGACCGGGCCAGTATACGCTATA

1: 4.44; 2: 2.42; 3: -0.437

Batch of 6 sequences: report PBM binding z-score for each.
1. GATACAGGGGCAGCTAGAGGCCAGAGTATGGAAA
2. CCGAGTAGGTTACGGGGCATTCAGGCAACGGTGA
3. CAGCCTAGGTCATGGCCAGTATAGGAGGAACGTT
4. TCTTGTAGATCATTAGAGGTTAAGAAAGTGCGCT
5. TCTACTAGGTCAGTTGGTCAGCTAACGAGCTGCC
6. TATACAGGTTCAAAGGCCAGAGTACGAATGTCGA

-0.177
-0.693
-0.187
1.68
-0.0574
2.06

Batch of 6 sequences: report PBM binding z-score for each.
1. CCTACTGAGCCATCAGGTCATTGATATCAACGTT
2. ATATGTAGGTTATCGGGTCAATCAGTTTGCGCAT
3. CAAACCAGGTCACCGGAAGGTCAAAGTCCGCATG
4. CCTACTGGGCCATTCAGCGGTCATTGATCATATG
5. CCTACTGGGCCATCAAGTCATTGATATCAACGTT
6. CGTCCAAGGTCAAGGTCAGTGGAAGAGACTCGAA

2.08
1.36
5.52
3.78
-0.0812
1.22

====

- Tested on: VDR homodimer (NR concentration 270 nM)
- protocol_details: PBM binding z-score (relative to random genomic background probes); higher = stronger binding; sequences stand for … in GC…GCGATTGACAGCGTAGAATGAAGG
Assign a class from recorded PBM binding z-score; defined classes: range A (below 0.1), range B (0.1 to below 2), range C (2 or more)

// known answers, use as guide
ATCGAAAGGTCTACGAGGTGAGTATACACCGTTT
range B
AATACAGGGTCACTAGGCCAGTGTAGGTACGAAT
range C
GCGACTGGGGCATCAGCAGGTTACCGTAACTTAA
range A
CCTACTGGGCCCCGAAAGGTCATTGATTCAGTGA
range B

# ---- query sequence ----
Band for the recorded PBM binding z-score of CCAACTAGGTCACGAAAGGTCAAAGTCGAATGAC ? range C
